molecular target: T1, Histidine-tagged human PD-1 protein (hPD-1-His) (human, UniProt Q15116 25-170, limits assumed); test: SPR (Biacore T200), antibody captured on Protein A chip, hPD-1-His analyte, 1:1 fit
T1 construct: Soluble analyte in SPR; not shown: histidine tag
T1 sequence (Q15116 25-170 limits assumed): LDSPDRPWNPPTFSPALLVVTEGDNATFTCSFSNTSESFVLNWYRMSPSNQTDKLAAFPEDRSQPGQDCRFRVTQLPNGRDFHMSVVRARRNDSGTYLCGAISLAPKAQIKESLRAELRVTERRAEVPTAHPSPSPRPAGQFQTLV
assay readout: kon (M⁻¹ s⁻¹)
# unit: M⁻¹ s⁻¹ | format: bare number

State its kon for this binder: 1A7-H1K2-IgG4-S228P (antibody, V domains shown, Humanized; human IgG4 constant domains with S228P (EU numbering)) VH: EVQLLESGGGLVQPGGSLRLSCAASGFTFSSYSMSWVRQAPGKRLEWVAHISSGGSSTYYPDTVKGRFTISRDNSKNTLYLQMNSLRAEDTAMYYCTRQFYYGSSFWYFDVWGQGTTVTVSS VL: DNVLTQSPATLSVSPGERATLSCKASQSVDFDGDSYMNWYQQKPGQPPRLLIYAASNLESGIPARFSGSGPGTDFTLTISSLEPEDFATYYCQQSNEDPPTFGGGTKVEIK
82600

State its kon for this binder: 1A7-H2K3-IgG4-S228P (antibody, V domains shown, Humanized; human IgG4 constant domains with S228P (EU numbering)) VH: EVQLVESGGGLVQPGGSLRLSCAASGFTFSSYSMSWVRQAPGKRLEWVAHISSGGSSTYYPDTVKGRFTISRDNSKNTLYLQMNSLRAEDTAMYYCTRQFYYGSSFWYFDVWGAGTTVTVSS VL: DNVLTQSPATLSVSPGERATLSCKASQSVDFDGDSYMNWYQQKPGQPPRLLIYAASNLESGIPARFSGSGSGTDFTLTISSVEPEDFATYYCQQSNEDPPTFGGGTKVEIK
115000

State its kon for this binder: 1A7-H1K3-IgG4-S228P (antibody, V domains shown, Humanized; human IgG4 constant domains with S228P (EU numbering)) VH: EVQLLESGGGLVQPGGSLRLSCAASGFTFSSYSMSWVRQAPGKRLEWVAHISSGGSSTYYPDTVKGRFTISRDNSKNTLYLQMNSLRAEDTAMYYCTRQFYYGSSFWYFDVWGQGTTVTVSS VL: DNVLTQSPATLSVSPGERATLSCKASQSVDFDGDSYMNWYQQKPGQPPRLLIYAASNLESGIPARFSGSGSGTDFTLTISSVEPEDFATYYCQQSNEDPPTFGGGTKVEIK
118000

State its kon for this binder: 3F1-H4K1-IgG4-S228P (antibody, V domains shown, Humanized; human IgG4 constant domains with S228P (EU numbering)) VH: QVQLQQSGAEVAKPGASVKMSCKASGYTFTSYWMHWVKQRPGQGLEWIGYINPSTGYTEYNQKFKDRATLTADKSTSTAYMELSSLTSEDTAVYYCARGVRYYFDYWGQGTLLTVSS VL: DIVMTQSPDSLAVSLGERATISCKSSQSLLNSRTRKNYLAWYQQKPGQSPKLLIYWASTRESGVPDRFSGSGSGTDFTLTISSVQAEDVAVYYCKQSYNLLTFGQGTKLELK
4420
